Tested on: 292921-168-R-J2-PDC complex spheroid growth
Test: Anticancer human tumor 292921-168-R-J2-PDC patient-derived pancreatic carcinoma cell line growth inhibition [AhR]
Conditions: second compound 1 µM; first compound 0.316 µM; stronger effect = lower value
In plain terms, low viability, T/C, meaning strictly below 80%, gives YES, and everything else gives NO.

{"compound": "COc1cc(Nc2ncc3c(n2)-c2ccc(Cl)cc2C(c2c(F)cccc2OC)=NC3)ccc1C(=O)O + Cc1cncc(-c2nc(NCCc3c[nH]c4ccccc34)c3ncn(C(C)C)c3n2)c1", "class-assignment": "YES"}
{"compound": "COc1cc(C2c3cc4c(cc3C(OC3OC5COC(C)OC5C(O)C3O)C3COC(=O)C23)OCO4)cc(OC)c1O (stereo not drawn) + Cc1ccccc1N=Nc1ccc(NC(=O)c2ccnn2C)c(C)c1", "class-assignment": "YES"}
{"compound": "Nc1ncn(C2CC(O)C(CO)O2)c(=O)n1 (stereo not drawn) + CC(CO)NC(=O)c1cc(-c2ccc(Cl)cc2)nn(-c2cnn(C)c2)c1=O", "class-assignment": "NO"}
{"compound": "COc1cccc2c1C(=O)c1c(O)c3c(c(O)c1C2=O)CC(O)(C(=O)CO)CC3OC1CC(N)C(O)C(C)O1 (stereo not drawn) + Cc1ccccc1N=Nc1ccc(NC(=O)c2ccnn2C)c(C)c1", "class-assignment": "YES"}
{"compound": "O=C(c1cc(Cc2n[nH]c(=O)c3ccccc23)ccc1F)N1CCN(C(=O)C2CC2)CC1 + CC(CO)NC(=O)c1cc(-c2ccc(Cl)cc2)nn(-c2cnn(C)c2)c1=O", "class-assignment": "NO"}

====

System: 292921-168-R-J2-PDC complex spheroid growth
Assay: Anticancer human tumor 292921-168-R-J2-PDC cell line growth inhibition [AhR];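 note: spheroids exposed to compounds for seven days after three days of growth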
Details: curve of first compound; second compound 0.1 µM
pIC50: −log10 of the molar value.

{"compound": "Cn1ncnc1C1c2n[nH]c(=O)c3cc(F)cc(c23)NC1c1ccc(F)cc1 (stereo not drawn) + Cc1ccccc1N=Nc1ccc(NC(=O)c2ccnn2C)c(C)c1", "pIC50": "< 7.00"}
{"compound": "COc1cc(Nc2ncc3c(n2)-c2ccc(Cl)cc2C(c2c(F)cccc2OC)=NC3)ccc1C(=O)O + CC(CO)NC(=O)c1cc(-c2ccc(Cl)cc2)nn(-c2cnn(C)c2)c1=O", "pIC50": "> 7.50"}
{"compound": "O=C(c1cc(Cc2n[nH]c(=O)c3ccccc23)ccc1F)N1CCN(C(=O)C2CC2)CC1 + Cc1ccccc1N=Nc1ccc(NC(=O)c2ccnn2C)c(C)c1", "pIC50": "< 5.00"}

====

Tested on: 292921-168-R-J2-PDC complex spheroid growth
Test: Anticancer human tumor 292921-168-R-J2-PDC cell line growth inhibition [AhR];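 note: spheroids exposed to compounds for seven days after three days of growth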
Conditions: curve of first compound; second compound 0.1 µM
Excerpt: Multicellular complex tumor spheroid response to aryl hydrocarbon receptor antagonists in combination with a variety of drugs and investigational agents in selected tumor cell lines […] Compounds. […] If the clinical Cmax for an agent had not been determined, the highest concentration tested was 10 microM (Table 1). […]
pIC50: −log10 of the molar value.

{"compound": "CC(C)c1c(-c2ccccc2)nc2c(C#N)c[nH]n2c1=O + Cc1ccccc1N=Nc1ccc(NC(=O)c2ccnn2C)c(C)c1", "pIC50": "< 5.00"}
{"compound": "Nc1ncn(C2CC(O)C(CO)S2)c(=O)n1 (configuration not stated) + Cc1ccccc1N=Nc1ccc(NC(=O)c2ccnn2C)c(C)c1", "pIC50": "< 6.52"}
{"compound": "Nc1ccn(C2OC(CO)C(O)C2(F)F)c(=O)n1 (configuration not stated) + Cc1cncc(-c2nc(NCCc3c[nH]c4ccccc34)c3ncn(C(C)C)c3n2)c1", "pIC50": "> 7.50"}
{"compound": "Cn1ncnc1C1c2n[nH]c(=O)c3cc(F)cc(c23)NC1c1ccc(F)cc1 (configuration not stated) + Cc1cncc(-c2nc(NCCc3c[nH]c4ccccc34)c3ncn(C(C)C)c3n2)c1", "pIC50": "< 7.00"}
{"compound": "Nc1ncn(C2CC(O)C(CO)S2)c(=O)n1 (configuration not stated) + Cc1cncc(-c2nc(NCCc3c[nH]c4ccccc34)c3ncn(C(C)C)c3n2)c1", "pIC50": "< 6.52"}
{"compound": "CCN(c1cc(-c2ccc(CN3CCOCC3)cc2)cc(C(=O)NCc2c(C)cc(C)[nH]c2=O)c1C)C1CCOCC1 + Cc1ccccc1N=Nc1ccc(NC(=O)c2ccnn2C)c(C)c1", "pIC50": "< 5.52"}
{"compound": "Nc1ccn(C2OC(CO)C(O)C2(F)F)c(=O)n1 (configuration not stated) + CC(CO)NC(=O)c1cc(-c2ccc(Cl)cc2)nn(-c2cnn(C)c2)c1=O", "pIC50": "> 7.50"}
{"compound": "Nc1ncn(C2CC(O)C(CO)O2)c(=O)n1 (configuration not stated) + Cc1cncc(-c2nc(NCCc3c[nH]c4ccccc34)c3ncn(C(C)C)c3n2)c1", "pIC50": "< 6.00"}
{"compound": "O=C(c1cc(Cc2n[nH]c(=O)c3ccccc23)ccc1F)N1CCN(C(=O)C2CC2)CC1 + CC(CO)NC(=O)c1cc(-c2ccc(Cl)cc2)nn(-c2cnn(C)c2)c1=O", "pIC50": "< 5.00"}
{"compound": "O=C(c1cc(Cc2n[nH]c(=O)c3ccccc23)ccc1F)N1CCN(C(=O)C2CC2)CC1 + Cc1cncc(-c2nc(NCCc3c[nH]c4ccccc34)c3ncn(C(C)C)c3n2)c1", "pIC50": "< 5.00"}
{"compound": "CC(C)c1c(-c2ccccc2)nc2c(C#N)c[nH]n2c1=O + CC(CO)NC(=O)c1cc(-c2ccc(Cl)cc2)nn(-c2cnn(C)c2)c1=O", "pIC50": "< 5.00"}
{"compound": "Nc1ncn(C2CC(O)C(CO)O2)c(=O)n1 (configuration not stated) + CC(CO)NC(=O)c1cc(-c2ccc(Cl)cc2)nn(-c2cnn(C)c2)c1=O", "pIC50": "< 6.00"}

====

System: 292921-168-R-J2-PDC complex spheroid growth
Test: Anticancer human tumor 292921-168-R-J2-PDC cell line growth inhibition [AhR];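 note: spheroids exposed to compounds for seven days after three days of growth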
Details: second compound 3.16 µM; first compound 0.0316 µM; stronger effect = lower value
Entries annotated with measured viability, T/C

{"molecule": "CC1COCCN1c1cc(C2(S(C)(=N)=O)CC2)nc(-c2ccnc3[nH]ccc23)n1 (stereo not drawn) + CC(CO)NC(=O)c1cc(-c2ccc(Cl)cc2)nn(-c2cnn(C)c2)c1=O", "viability, T/C (%)": 102}
{"molecule": "COc1ccc([C@@H](O)c2cc(-c3ncnc4cc(N5CCOCC5)ccc34)c(F)cc2Cl)nn1 + Cc1cncc(-c2nc(NCCc3c[nH]c4ccccc34)c3ncn(C(C)C)c3n2)c1", "viability, T/C (%)": 67.1}
{"molecule": "Cn1ncnc1C1c2n[nH]c(=O)c3cc(F)cc(c23)NC1c1ccc(F)cc1 (stereo not drawn) + CC(CO)NC(=O)c1cc(-c2ccc(Cl)cc2)nn(-c2cnn(C)c2)c1=O", "viability, T/C (%)": 77.1}

====

System: 292921-168-R-J2-PDC complex spheroid growth
Assay: Anticancer human tumor 292921-168-R-J2-PDC cell line growth inhibition [AhR]; active = viability on the fitted dose curve at most 10% of control; inactive = the rest;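 note: spheroids exposed to compounds for seven days after three days of growth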
Details: second compound 0.1 µM; first compound 3.16 µM
Outcomes: active, inactive

{"compound": "COc1cc(C2c3cc4c(cc3C(OC3OC5COC(C)OC5C(O)C3O)C3COC(=O)C23)OCO4)cc(OC)c1O (configuration not stated) + CC(CO)NC(=O)c1cc(-c2ccc(Cl)cc2)nn(-c2cnn(C)c2)c1=O", "class-assignment": "inactive"}
{"compound": "COc1cccc2c1C(=O)c1c(O)c3c(c(O)c1C2=O)CC(O)(C(=O)CO)CC3OC1CC(N)C(O)C(C)O1 (configuration not stated) + Cc1ccccc1N=Nc1ccc(NC(=O)c2ccnn2C)c(C)c1", "class-assignment": "active"}
{"compound": "COc1ccc([C@@H](O)c2cc(-c3ncnc4cc(N5CCOCC5)ccc34)c(F)cc2Cl)nn1 + Cc1ccccc1N=Nc1ccc(NC(=O)c2ccnn2C)c(C)c1", "class-assignment": "inactive"}
{"compound": "NS(=O)(=O)OCC1CC(n2ccc3c(NC4CCc5ccccc54)ncnc32)CC1O (configuration not stated) + CC(CO)NC(=O)c1cc(-c2ccc(Cl)cc2)nn(-c2cnn(C)c2)c1=O", "class-assignment": "active"}
{"compound": "Nc1ccn(C2OC(CO)C(O)C2(F)F)c(=O)n1 (configuration not stated) + CC(CO)NC(=O)c1cc(-c2ccc(Cl)cc2)nn(-c2cnn(C)c2)c1=O", "class-assignment": "active"}
{"compound": "Nc1ccn(C2OC(CO)C(O)C2(F)F)c(=O)n1 (configuration not stated) + Cc1ccccc1N=Nc1ccc(NC(=O)c2ccnn2C)c(C)c1", "class-assignment": "active"}
{"compound": "COc1cc(Nc2ncc3c(n2)-c2ccc(Cl)cc2C(c2c(F)cccc2OC)=NC3)ccc1C(=O)O + CC(CO)NC(=O)c1cc(-c2ccc(Cl)cc2)nn(-c2cnn(C)c2)c1=O", "class-assignment": "inactive"}
{"compound": "COc1cccc2c1C(=O)c1c(O)c3c(c(O)c1C2=O)CC(O)(C(=O)CO)CC3OC1CC(N)C(O)C(C)O1 (configuration not stated) + Cc1cncc(-c2nc(NCCc3c[nH]c4ccccc34)c3ncn(C(C)C)c3n2)c1", "class-assignment": "active"}
{"compound": "NS(=O)(=O)OCC1CC(n2ccc3c(NC4CCc5ccccc54)ncnc32)CC1O (configuration not stated) + Cc1cncc(-c2nc(NCCc3c[nH]c4ccccc34)c3ncn(C(C)C)c3n2)c1", "class-assignment": "active"}
{"compound": "O=C(C=Cc1cccc(S(=O)(=O)Nc2ccccc2)c1)NO + Cc1ccccc1N=Nc1ccc(NC(=O)c2ccnn2C)c(C)c1", "class-assignment": "inactive"}
{"compound": "Nc1ccn(C2OC(CO)C(O)C2(F)F)c(=O)n1 (configuration not stated) + Cc1cncc(-c2nc(NCCc3c[nH]c4ccccc34)c3ncn(C(C)C)c3n2)c1", "class-assignment": "active"}
{"compound": "CC1(C)CCC(CN2CCN(c3ccc(C(=O)NS(=O)(=O)c4ccc(NCC5CCOCC5)c([N+](=O)[O-])c4)c(Oc4cnc5[nH]ccc5c4)c3)CC2)=C(c2ccc(Cl)cc2)C1 + Cc1ccccc1N=Nc1ccc(NC(=O)c2ccnn2C)c(C)c1", "class-assignment": "inactive"}
